biological target: VEGF (vascular endothelial growth factor) (Homo sapiens, UniProt P15692-4 P15692-4:27-191); experiment: ELONA; 95% CI 0.19-0.33 nM, N=6; VEGF titration in sandwich with capture antibody, ligand 400 nM as detector, room temperature; 0.236 nM in Superblock/TBS-Tween variant; settings: tags: R&D Systems recombinant human VEGF; chain copies: 2; label: 3'-biotin
Sequence (P15692 other isoform, or with tags, fused parts or gaps): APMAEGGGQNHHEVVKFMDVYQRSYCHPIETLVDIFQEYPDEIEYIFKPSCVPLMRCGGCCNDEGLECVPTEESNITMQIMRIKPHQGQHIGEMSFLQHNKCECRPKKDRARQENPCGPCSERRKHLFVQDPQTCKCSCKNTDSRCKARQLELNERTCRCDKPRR
pEC50: −log10 of the molar value.
Reported Property: pEC50

{"columns": ["Binder", "Reported Property", "Val"],
 "data": [
  ["ACCCUGAUGGUAGACGCCGGG (ssRNA, 2'-NH2 pyrimidines) [VEGF-NeXamer]", "pEC50", 9.60]
]}
